- Assay details: Lipophilicity, Log D of the compound
- Type: physicochemical
- Condition notes: octanol/water
Label Not met if logD falls below 3; label Met in every other case.

{"Molecule": "CCC(NCCCC[C@@H](Cc1cc(C)c(F)c(C)c1)C(=O)NO)c1ccc(F)cc1 (mixture of isomers)", "Group": "Not met"}
{"Molecule": "CCC(NCCCC[C@@H](Nc1cc(C)c(F)c(C)c1)C(=O)NO)c1ccc(F)cc1 (mixture of isomers)", "Group": "Met"}
{"Molecule": "Cc1cc(O[C@H](CCCCNCc2ccc(F)cc2)C(=O)NO)cc(C)c1F", "Group": "Met"}
{"Molecule": "CO[C@H](C[C@H](CCCCNCc1ccc(F)cc1)C(=O)NO)c1ccc(F)cc1", "Group": "Not met"}
{"Molecule": "Cc1cc(N[C@H](CCCCNCc2ccc(F)cc2)C(=O)NO)cc(C)c1F", "Group": "Not met"}
{"Molecule": "CCC(NCCCC[C@@H](Oc1cc(C)c(F)c(C)c1)C(=O)NO)c1ccc(F)cc1 (mixture of isomers)", "Group": "Met"}
{"Molecule": "Cc1cc(C[C@H](CCCCNCc2ccc(F)cc2)C(=O)NO)cc(C)c1F", "Group": "Not met"}
{"Molecule": "CCC(NCCCC[C@@H](C[C@@H](OC)c1ccc(F)cc1)C(=O)NO)c1ccc(F)cc1 (mixture of isomers)", "Group": "Not met"}

----------
List of CC50 values.
- Test system: RAW264.7
- Assay details: Cytotoxicity against mouse RAW264.7 cells by MTT assay
- Type: cell-based
Property measured: CC50 (µM)

{"Compound": "Cc1cc(C[C@H](CCCCNCc2ccc(F)cc2)C(=O)NO)cc(C)c1F", "Test system": "RAW264.7", "Value measured": 16}
{"Compound": "CO[C@H](C[C@H](CCCCNCc1ccc(F)cc1)C(=O)NO)c1ccc(F)cc1", "Test system": "RAW264.7", "Value measured": 55}
{"Compound": "CCC(NCCCC[C@@H](Nc1cc(C)c(F)c(C)c1)C(=O)NO)c1ccc(F)cc1 (mixture of isomers)", "Test system": "RAW264.7", "Value measured": 32}
{"Compound": "CCC(NCCCC[C@@H](C[C@@H](OC)c1ccc(F)cc1)C(=O)NO)c1ccc(F)cc1 (mixture of isomers)", "Test system": "RAW264.7", "Value measured": 35}

----------
pIC50: −log10 of the molar value.
pIC50, Voltage-gated inwardly rectifying potassium channel KCNH2 (Homo sapiens, UniProt Q12809): measured values
Property measured: pIC50

{"Compound": "Cc1cc(O[C@H](CCCCNCc2ccc(F)cc2)C(=O)NO)cc(C)c1F", "Test system": "Voltage-gated inwardly rectifying potassium channel KCNH2 (Homo sapiens, UniProt Q12809)", "Value measured": 6.10}
{"Compound": "Cc1cc(N[C@H](CCCCNCc2ccc(F)cc2)C(=O)NO)cc(C)c1F", "Test system": "Voltage-gated inwardly rectifying potassium channel KCNH2 (Homo sapiens, UniProt Q12809)", "Value measured": 5.91}
{"Compound": "Cc1cc(C[C@H](CCCCNCc2ccc(F)cc2)C(=O)NO)cc(C)c1F", "Test system": "Voltage-gated inwardly rectifying potassium channel KCNH2 (Homo sapiens, UniProt Q12809)", "Value measured": 5.33}
{"Compound": "CCC(NCCCC[C@@H](Nc1cc(C)c(F)c(C)c1)C(=O)NO)c1ccc(F)cc1 (mixture of isomers)", "Test system": "Voltage-gated inwardly rectifying potassium channel KCNH2 (Homo sapiens, UniProt Q12809)", "Value measured": 6.02}

----------
- Test system: Lethal factor (Bacillus anthracis, UniProt P15917)
- Sequence (P15917 whole entry): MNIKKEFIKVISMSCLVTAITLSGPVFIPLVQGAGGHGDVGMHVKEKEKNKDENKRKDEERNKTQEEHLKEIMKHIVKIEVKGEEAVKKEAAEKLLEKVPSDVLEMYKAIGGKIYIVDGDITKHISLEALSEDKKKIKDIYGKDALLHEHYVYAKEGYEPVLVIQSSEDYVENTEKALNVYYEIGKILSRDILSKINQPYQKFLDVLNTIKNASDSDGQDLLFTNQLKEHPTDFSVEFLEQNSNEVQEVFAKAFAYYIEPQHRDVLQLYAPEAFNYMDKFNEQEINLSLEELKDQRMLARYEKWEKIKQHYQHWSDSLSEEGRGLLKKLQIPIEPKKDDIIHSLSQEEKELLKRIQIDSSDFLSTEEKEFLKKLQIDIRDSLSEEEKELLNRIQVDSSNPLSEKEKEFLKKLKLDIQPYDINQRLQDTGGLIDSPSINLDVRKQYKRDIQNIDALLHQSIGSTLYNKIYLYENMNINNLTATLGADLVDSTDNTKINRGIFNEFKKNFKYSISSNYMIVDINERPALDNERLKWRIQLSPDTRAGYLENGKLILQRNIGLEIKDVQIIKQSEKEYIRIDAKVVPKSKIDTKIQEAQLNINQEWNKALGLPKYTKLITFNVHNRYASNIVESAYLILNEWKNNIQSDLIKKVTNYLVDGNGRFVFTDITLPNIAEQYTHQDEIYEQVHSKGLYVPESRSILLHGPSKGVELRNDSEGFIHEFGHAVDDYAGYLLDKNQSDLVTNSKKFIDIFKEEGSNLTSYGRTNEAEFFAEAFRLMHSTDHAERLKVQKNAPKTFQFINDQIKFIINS
List of Ki values.
Property measured: Ki (nM)

{"Compound": "Cc1cc(C[C@H](CCCCN[C@H](CC(C)C)c2ccc(F)cc2)C(=O)NO)cc(C)c1F", "Test system": "Lethal factor (Bacillus anthracis, UniProt P15917)", "Unit symbol": "nM", "Value measured": 0.23}
{"Compound": "CCC(NCCCC[C@@H](Nc1cc(C)c(F)c(C)c1)C(=O)NO)c1ccc(F)cc1 (mixture of isomers)", "Test system": "Lethal factor (Bacillus anthracis, UniProt P15917)", "Unit symbol": "nM", "Value measured": 0.17}
{"Compound": "CC[C@@H](NCCCC[C@@H](Cc1cc(C)c(F)c(C)c1)C(=O)NO)c1ccc(F)cc1", "Test system": "Lethal factor (Bacillus anthracis, UniProt P15917)", "Unit symbol": "nM", "Value measured": 0.04}
{"Compound": "CCC(NCCCC[C@@H](Cc1cc(C)c(F)c(C)c1)C(=O)NO)c1ccc(F)cc1 (mixture of isomers)", "Test system": "Lethal factor (Bacillus anthracis, UniProt P15917)", "Unit symbol": "nM", "Value measured": 0.31}

----------
- Test system: Lethal factor (Bacillus anthracis, UniProt P15917)
- Sequence (P15917 whole entry): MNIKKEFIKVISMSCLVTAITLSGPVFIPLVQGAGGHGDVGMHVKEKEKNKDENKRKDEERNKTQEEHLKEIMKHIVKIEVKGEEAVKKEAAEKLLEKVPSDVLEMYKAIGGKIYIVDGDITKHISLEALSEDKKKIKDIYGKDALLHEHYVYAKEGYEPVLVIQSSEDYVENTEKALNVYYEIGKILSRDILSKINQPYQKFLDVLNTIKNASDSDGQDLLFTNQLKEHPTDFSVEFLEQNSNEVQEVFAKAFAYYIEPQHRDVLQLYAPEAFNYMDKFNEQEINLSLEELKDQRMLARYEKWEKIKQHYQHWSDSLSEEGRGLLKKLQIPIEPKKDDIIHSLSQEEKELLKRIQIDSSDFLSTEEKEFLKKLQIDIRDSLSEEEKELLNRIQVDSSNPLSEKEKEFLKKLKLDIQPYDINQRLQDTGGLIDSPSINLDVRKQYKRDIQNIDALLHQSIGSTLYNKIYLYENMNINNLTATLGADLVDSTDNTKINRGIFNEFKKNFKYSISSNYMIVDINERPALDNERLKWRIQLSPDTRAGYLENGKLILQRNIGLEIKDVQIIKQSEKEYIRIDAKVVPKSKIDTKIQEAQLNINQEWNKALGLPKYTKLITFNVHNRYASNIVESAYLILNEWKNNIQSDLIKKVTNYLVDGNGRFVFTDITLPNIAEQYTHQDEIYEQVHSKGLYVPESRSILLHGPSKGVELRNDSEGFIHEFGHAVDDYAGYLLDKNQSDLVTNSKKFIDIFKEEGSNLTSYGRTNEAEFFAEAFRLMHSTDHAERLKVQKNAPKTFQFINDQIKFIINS
pKi: −log10 of the molar value.

{"Molecule": "Cc1cc(C[C@H](CCCCN[C@@H](C)c2ccc(F)cc2)C(=O)NO)cc(C)c1F", "Test system": "Lethal factor (Bacillus anthracis, UniProt P15917)", "pKi": 9.31}
{"Molecule": "Cc1cc(C[C@H](CCCCN[C@@H](CC(C)C)c2ccc(F)cc2)C(=O)NO)cc(C)c1F", "Test system": "Lethal factor (Bacillus anthracis, UniProt P15917)", "pKi": 8.89}
{"Molecule": "CCC(NCCCC[C@@H](Oc1cc(C)c(F)c(C)c1)C(=O)NO)c1ccc(F)cc1 (mixture of isomers)", "Test system": "Lethal factor (Bacillus anthracis, UniProt P15917)", "pKi": 9.00}
{"Molecule": "Cc1cc(C[C@H](CCCCN[C@@H](Cc2ccccc2)c2ccc(F)cc2)C(=O)NO)cc(C)c1F", "Test system": "Lethal factor (Bacillus anthracis, UniProt P15917)", "pKi": 8.70}
{"Molecule": "CC[C@H](NCCCC[C@@H](Cc1cc(C)c(F)c(C)c1)C(=O)NO)c1ccc(F)cc1", "Test system": "Lethal factor (Bacillus anthracis, UniProt P15917)", "pKi": 9.96}
